- Assayed Target: factor Xa (human, UniProt P00742;P00742 P00742:41-179,P00742:235-488)
- Sequence (P00742 41-179, chain 1 of 2): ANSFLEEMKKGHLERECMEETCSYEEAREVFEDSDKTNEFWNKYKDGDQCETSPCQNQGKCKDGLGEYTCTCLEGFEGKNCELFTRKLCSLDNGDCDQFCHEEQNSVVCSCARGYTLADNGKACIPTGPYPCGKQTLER
- Sequence (P00742 235-488, chain 2 of 2): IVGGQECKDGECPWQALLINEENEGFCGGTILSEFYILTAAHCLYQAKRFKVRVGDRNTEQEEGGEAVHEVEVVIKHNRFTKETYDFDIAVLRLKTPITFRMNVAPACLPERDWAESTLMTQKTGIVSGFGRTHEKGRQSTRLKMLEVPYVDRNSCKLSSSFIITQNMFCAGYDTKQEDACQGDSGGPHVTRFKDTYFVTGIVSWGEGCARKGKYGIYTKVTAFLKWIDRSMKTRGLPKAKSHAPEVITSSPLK
- Test Description: inhibition; fluorogenic substrate; free DAB IC50 >500 nM
- Measurement Conditions: tags: Haematologic Technologies Inc
Reported Metric: pIC50
Would you please state pIC50, meaning minus log10 of the concentration in mol/L, as a bare number?

**Q:** Specify pIC50 for 11F7t-20A-DAB (ssRNA, 5' dabigatran-C6; 2'-OMe A(20) linker; C and U of aptamer 2'-F (inferred); 3' T) RNA: AAAAAAAAAAAAAAAAAAAAGAGAGCCCCAGCGAGAUAAUACUUGGCCCCGCUCUU and stop.
**A:** 9.74
